assay: JC-1 mitochondrial potential readout, lung cancer cells – cell-based, A549, JC-1 fluorescence, basal, 24 h, 100 nL, profiling panel (AID 1138); conditions: higher = more signal;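 further: A549 lung adenocarcinoma cells under basal conditions with no added stimulus; test concentration not given here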
measurement-kind: z-score
Answers are plain numbers.

Some compounds with known z-score results, for comparison:
CC1CC/C=C\[C@H]2OC34C=CCN(Cc5ccccc5)C(=O)[C@H]3N(C(C)CO)C(=O)[C@@H]4C2C(=O)O1 (stereo partly specified): 0.924
[N-]=[N+]=NCc1ccccc1[C@@H]1OC(c2ccc(OCCCO)cc2)=N[C@]1(CCS(=O)(=O)c1ccccc1)C(=O)N1CCCCC1: -0.706
Cc1c(NC(=O)/C(C#N)=C/c2cccc([N+](=O)[O-])c2)c(=O)n(-c2ccccc2)n1C: 0.365
OB1C=CCC(CCc2ccccc2)O1 (stereo unspecified): 1.13
COc1ccc(CCNC(=O)[C@@]2(C)c3ccccc3C(=O)N(c3ccc(C)cn3)[C@H]2c2ccc(CO)cc2)cc1: 0.14
CCOC(=O)C[C@H]1[C@H](OC(=O)c2ccc(C(=O)c3ccccc3)cc2)[C@@H](NC(=O)c2ccccc2)c2cc(OCCCO)ccc2N1C(=O)c1ccccc1: 0.697
NC(=O)[C@@]1(Cc2ccccc2)N=C(c2ccc(OCCCO)cc2)O[C@H]1c1ccccc1: 0.184
O=C1OCCC=C[C@H]2OC34C=CCN(CCN5CCOCC5)C(=O)[C@H]3N(CCCCCO)C(=O)[C@@H]4C12 (stereo partly specified): 0.791
C#CCOc1ccc(C[C@@H](C(=O)OC)N(CC#C)[C@@H](/C=C/C2CC2)[C@H](O)Cc2ccccc2)cc1: 2.32
CCCCCCc1nc(-c2ccc(-c3ccc(Cl)c(Cl)c3)o2)cc2c1[Si](C(C)C)(C(C)C)O[C@H]2c1ccccc1: -0.859

Your task in this section: give z-score for each listed record.
1. CN1C(=O)C2C=CC(C(O)c3ccccc3)N(N3CCCCC3)C2C1=O (stereo unspecified)
2. O[C@@H](Cc1ccccc1)[C@@H](/C=C/C1CC1)NCc1cccc(Cl)c1
3. COC(=O)[C@@]1(Cc2ccc(OC)cc2)[C@H]2c3cc(C(=O)N4CCCC4)n(CCc4ccc(O)c(O)c4)c3C[C@H]2CN1C(=O)c1ccccc1
4. CCOC(=O)C1=C[C@@H](C(C)C)N(S(=O)(=O)c2ccc(C)cc2)[C@H]1c1ccccc1F
5. CC(C)[C@@H](C(=O)O)n1cc(C2(O)CCCCC2)nn1
6. C=CCOC(=O)[C@H]1[C@@H]2C(=O)O[C@@H](c3ccccc3)[C@@H](c3ccccc3)N2[C@@H](c2ccc(OCCOC(=O)[C@@H]3C[C@@H]4C(=O)N5CCC[C@H]5C(=O)N4[C@@H]3c3cccc(OCCO)c3)cc2)[C@]12C(=O)Nc1ccc(I)cc12

Return:
[0.0958, -0.164, -0.72, 2.33, 0.0494, -0.838]

Your task in this section: give z-score for each listed record.
1. CCOc1cc(C(O)C2C=CC3C(=O)N(c4ccccc4)C(=O)C3N2Nc2ccc(C(C)C)cc2)ccc1O (stereo unspecified)
2. CC[C@@H]1C=C(C(=O)O)[C@H](c2ccc(C)cc2)N1S(=O)(=O)c1ccc(C)cc1
3. COc1ccc(C(=O)Nc2ccc(CN3C(=O)[C@]4(O[C@H](CC(=O)N5CCC[C@H]5CO)[C@@H]([Si](C)(C)c5ccc(OC)cc5)[C@@H]4C)c4ccccc43)cc2)cc1
4. NC(=O)[C@@H]1[C@H]2C(=O)O[C@H](c3ccccc3)[C@H](c3ccccc3)N2[C@H](c2ccc(OCCO)cc2)[C@@]12C(=O)Nc1ccc(C#CC3=CCCCC3)cc12
5. CCCCN1CC=CC23O[C@@H]4/C=C\CCCOC(=O)C4[C@H]2C(=O)N(CCCCCO)[C@@H]3C1=O (stereo partly specified)

Return:
1. 0.898
2. -0.233
3. 0.195
4. -1.87
5. 0.897
